- EXPERIMENTAL_DETAILS: physchem
- EXPERIMENTAL_CONTEXT: aqueous buffer
QUANTITY: solubility (mg/mL)
Answers are plain numbers, in mg/mL.

Please report the recorded solubility for C[C@H]1[C@H](OC(=O)CCC(=O)O)O[C@@H]2O[C@@]3(C)CC[C@H]4[C@H](C)CC[C@@H]1[C@@]24OO3 [artesunate] . 100

* * *

- Test system: mouse breast cancer-derived FM3A cells (F28-7 strain)
- EXPERIMENTAL_DETAILS: Growth inhibition test of mouse FM3A cells
- Type: cell-based
- EXPERIMENTAL_CONTEXT: FM3A cells, 48 hours culture, cell count; cytotoxicity; read-out: IC50 (M) Cancer cells of mice FM3A
QUANTITY: IC50 (M)
Numbers only, in M.

Please report the recorded IC50 for OCCCCCCC1COOC2(CCCCCCCCCCC2)OOC1 [N251] . 8e-06

Values compiled from patent US7407984B2.
